Molecular target: Fibroblast growth factor 10 (Homo sapiens)
Assay: FGF10 binders on small-molecule microarrays, primary screen, biochemical, small-molecule microarray, 635 nm fluorescence (AID 1102)
Conditions: FGF10 binding, fluorescence 635 nm, higher = more signal
Output 1.0 for composite z-score not less than 0.7; output 0.0 otherwise.

Cc1ccc(S(=O)(=O)N[C@@H]2COC(=O)[C@H](C)COC(=O)CC=C[C@H]2C)cc1 : 0.0
COc1ccc([Si](C)(C)[C@H]2[C@H](CCO)O[C@@]3(C(=O)N(Cc4cccc(NC(=O)[C@H](C)O)c4)c4ccccc43)[C@@H]2C)cc1 : 1.0
COC(=O)CC=C[C@@H](C)[C@@H](C=NO[C@@H](C)c1cc(-c2c(C)cc(C)cc2C)no1)OC : 0.0

Now take the following compound into account.
Tell me whether composite z-score is at least 0.7 here: C=CCN1C(=O)[C@]2(O[C@H](CCn3cc(CCO)nn3)[C@@H]([Si](C)(C)c3ccc(OC)cc3)[C@@H]2C)c2cc(N3CCOC3=O)ccc21 0.0

----------
Assay: MM1S cell viability effects, profiling panel, calcein-AM fluorescence, 48 h, basal (AID 1165);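 further: viability of MM1S multiple myeloma cells under basal unstimulated conditions; test concentration not given here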
Details: higher = more signal
observation-type: z-score
Number only, please.

C[C@@H](c1ccccc1)N1C(=O)[C@H]2[C@H]3[C@H](O)[C@H](O)CC(=NNC(=O)OCc4ccccc4)[C@H]3CC[C@H]2C1=O : -0.0615
O=C1C[C@@H](O)[C@@H](O)[C@@H]2[C@@H]3C(=O)N(C4CCCCC4)C(=O)[C@@H]3CC[C@H]12 : -0.148
CC(C)NC(=O)[C@@]1(c2ccc([N+](=O)[O-])cc2)CC(=O)N(CC23CC4CC(CC(C4)C2)C3)[C@@H]1c1ccc(CO)cc1I : -3.8

Request the reported z-score associated with C[C@@H]1CCC2C(=O)N(Cc3ccccc3)C[C@@H](O)CN2[C@H]1c1ccc(Br)cc1 (some centres undefined) 0.314

----------
Test: binders of probe aHhip on microarray, primary screen, stem cell growth factor project, biochemical, small-molecule microarray, fluorescence 635/667 (AID 1087);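 further: score merges spot fluorescence at 667nm with spot signal to noise ratio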
Settings: higher = more signal
observation-type: composite z-score

Examples with answers:
C=C(/C(=C/C[C@H](OC(C)=O)c1ccc(OCCO)cc1)c1cnc2ccccc2c1)C(C)C : -0.333
CC(C)(C)OC(=O)CC[C@]1(C(=O)NCc2ccccc2)N=C(c2ccc(OCCCO)cc2)O[C@H]1c1ccccc1 : -0.0645
CN1C(=O)C2C=CC(C(O)c3ccc(I)cc3)N(NC(=O)OC(C)(C)C)C2C1=O (stereo not given) : -0.0994
O=C1[C@H]2[C@H]3[C@H](O)[C@H](O)CC(=NO[C@@H]4O[C@H](CO)[C@@H](O)[C@H](O)[C@H]4O)[C@H]3CC[C@H]2C(=O)N1Cc1ccc2c(c1)OCO2 : -0.132
COC(=O)[C@@H]1CC[C@H](C)[C@@H](c2ccc(C)cc2)N1C(=O)c1ccc(C=NOC[C@@H](O)COCc2ccco2)cc1 : -0.137
COc1ccc(CCNC(=O)[C@@H]2c3ccccc3C(=O)N(c3ccc(C)cn3)[C@H]2c2ccc(CO)cc2)cc1 : -0.0994
CCCCC(=C=CC[C@H](O)c1ccccc1OCCO)C[C@H](O)COCc1ccccc1 : -0.0296
Cn1cccc1C(O)C1C=CC2C(=O)NC(=O)C2N1Nc1ccccn1 (stereo not given) : 0.0053

# input for lookup
Request the reported composite z-score associated with O=C1[C@H]2[C@H]3[C@H](O)[C@H](O)CC(=NO[C@@H]4O[C@H](CO)[C@@H](O)[C@H](O)[C@H]4O)[C@H]3CC[C@H]2C(=O)N1C1CCCCC1 0.841
